Values compiled from patent US12509447B2.

Would you mind telling me the reported IC50 of each entry?
target: JAK2 (Homo sapiens, UniProt O60674)
Sequence (O60674 whole entry): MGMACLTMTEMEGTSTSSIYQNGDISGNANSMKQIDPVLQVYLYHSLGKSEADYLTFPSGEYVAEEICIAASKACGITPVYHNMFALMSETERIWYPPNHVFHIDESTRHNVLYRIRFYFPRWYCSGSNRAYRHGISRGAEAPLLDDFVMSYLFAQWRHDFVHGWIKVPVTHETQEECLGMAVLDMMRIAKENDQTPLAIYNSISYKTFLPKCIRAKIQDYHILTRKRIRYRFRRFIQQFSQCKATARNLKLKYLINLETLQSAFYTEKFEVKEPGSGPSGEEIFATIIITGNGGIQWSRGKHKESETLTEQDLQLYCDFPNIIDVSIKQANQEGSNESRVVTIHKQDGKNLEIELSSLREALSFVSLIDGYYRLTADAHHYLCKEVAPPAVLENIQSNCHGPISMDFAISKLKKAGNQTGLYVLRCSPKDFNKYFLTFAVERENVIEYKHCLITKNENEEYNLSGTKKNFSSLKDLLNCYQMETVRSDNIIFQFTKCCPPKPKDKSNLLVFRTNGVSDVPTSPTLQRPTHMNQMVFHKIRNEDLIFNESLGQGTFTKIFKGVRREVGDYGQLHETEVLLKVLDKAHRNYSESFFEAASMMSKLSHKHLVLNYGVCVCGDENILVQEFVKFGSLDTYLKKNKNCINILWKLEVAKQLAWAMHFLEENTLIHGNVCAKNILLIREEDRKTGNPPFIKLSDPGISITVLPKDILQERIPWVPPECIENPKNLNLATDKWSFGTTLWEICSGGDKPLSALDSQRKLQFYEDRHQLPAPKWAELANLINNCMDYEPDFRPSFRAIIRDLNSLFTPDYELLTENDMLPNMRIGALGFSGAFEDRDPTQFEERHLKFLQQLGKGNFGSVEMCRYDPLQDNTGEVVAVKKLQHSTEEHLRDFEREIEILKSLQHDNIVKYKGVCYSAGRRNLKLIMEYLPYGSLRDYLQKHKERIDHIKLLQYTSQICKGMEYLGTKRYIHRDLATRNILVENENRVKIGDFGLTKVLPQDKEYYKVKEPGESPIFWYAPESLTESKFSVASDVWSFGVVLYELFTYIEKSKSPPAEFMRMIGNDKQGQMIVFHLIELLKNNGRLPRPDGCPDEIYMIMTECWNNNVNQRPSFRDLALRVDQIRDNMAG
assayComment: Inhibition of JAK kinase activity, EZ Reader microfluidic phosphorylation of peptide substrate: JAK2
Type: biochemical
cond: JAK2 kinase 1 nM; highest final concentration 10 μM, 1:3 serial dilution, 8 points, duplicates

compound: Cn1cc(Nc2nccc(-c3cnn(C4CN(C(=O)CC#N)C4)c3)n2)cn1
IC50: ≥ 10 µM

Hi team, please reply with IC50 for each item in this list.
1. CCCC(=O)N1CCC(n2cc(-c3ccnc(Nc4cnn(C)c4)n3)cn2)CC1
2. CCS(=O)(=O)N1CCC(n2cc(-c3ccnc(Nc4cnn(C)c4)n3)cn2)CC1
3. Cn1cc(Nc2nccc(-c3cnn(C4(CC#N)CN(C(=O)CC#N)C4)c3)n2)cn1
4. Cn1cc(Nc2nccc(-c3cnn(C4(CC#N)CN(C(=O)CC(F)(F)F)C4)c3)n2)cn1
5. Cn1cc(Nc2cc(-c3cnn(C4CN(C(=O)C5CC5(F)F)C4)c3)ccn2)cn1 (stereo not drawn)
6. Cn1cc(Nc2cc(-c3cnn(C4CN(C(=O)CO)C4)c3)ccn2)cn1
7. CCCS(=O)(=O)N1CC(n2cc(-c3ccnc(Nc4cnn(C)c4)c3)cn2)C1
8. CCCC(=O)N1CC(n2cc(-c3ccnc(Nc4cnn(C)c4)n3)cn2)C1

**Result**
1. ≥ 10 µM
2. 1 to 10 µM
3. 1 to 10 µM
4. 0.1 to 1 µM
5. ≥ 10 µM
6. ≥ 10 µM
7. ≥ 10 µM
8. ≥ 10 µM

Hi team, please reply with IC50 for each item in this list.
1. Cn1cc(Nc2nccc(-c3cnn(C4CCN(C(=O)CC(F)(F)F)CC4)c3)n2)cn1
2. Cn1cc(Nc2nccc(-c3cnn(C4CCN(C(=O)C5CC5(F)F)C4)c3)n2)cn1 (stereo not drawn)

**Result**
≥ 10 µM
1 to 10 µM
